# TARGET UNDER TEST: Sterol O-acyltransferase 1 (Rattus norvegicus)
# PROTOCOL TEXT: In vitro acyl coenzyme A:cholesterol acyltransferase (ACAT) activity in rat liver microsome at a concentration of 10 micro g/mL
# Format: microsomes
RESULT TYPE: inhibition (%)
One number for each entry, in %.

In the examples that follow, each entry is paired with its recorded inhibition.
>  <MOLECULE>
Cc1ccc(-c2nc(SC[C@H]3C[C@@](C)(O)CC(=O)O3)[nH]c2-c2ccc(C)cc2)cc1.Cc1ccc(-c2nc(SC[C@H]3C[C@](C)(O)CC(=O)O3)[nH]c2-c2ccc(C)cc2)cc1

>  <inhibition [%]>
99

$$$$
>  <MOLECULE>
O=C1CCC(CSc2nc(-c3ccccc3)c(-c3ccccc3)[nH]2)O1 (stereo not drawn)

>  <inhibition [%]>
78

$$$$
>  <MOLECULE>
CC1=CC(=O)OC(CSc2nc(-c3cccc(Cl)c3)c(-c3cccc(Cl)c3)[nH]2)C1 (stereo not drawn)

>  <inhibition [%]>
98

$$$$

// each molecule listed below needs its inhibition
1. C[C@@]1(O)CC(=O)O[C@@H](CSc2nc(-c3ccc(C(F)(F)F)cc3)c(-c3ccc(C(F)(F)F)cc3)[nH]2)C1.C[C@]1(O)CC(=O)O[C@@H](CSc2nc(-c3ccc(C(F)(F)F)cc3)c(-c3ccc(C(F)(F)F)cc3)[nH]2)C1
2. CC1=CC(=O)OC(CSc2nc(-c3ccc(F)cc3)c(-c3ccc(F)cc3)[nH]2)C1 (stereo not drawn)
3. COC(CSc1nc(-c2ccccc2)c(-c2ccccc2)[nH]1)OC
4. COc1cccc(-c2nc(SCC3C[C@](C)(O)CC(=O)O3)[nH]c2-c2cccc(OC)c2)c1 (stereo partly drawn)
5. c1ccc(-c2nc(SCC3OCCCO3)[nH]c2-c2ccccc2)cc1

A:
1. 95
2. 96
3. 99
4. 97
5. 97

* * *

# TARGET UNDER TEST: Sterol O-acyltransferase 1 (Rattus norvegicus) (UniProt O70536)
# PROTOCOL TEXT: In vitro acyl coenzyme A:cholesterol acyltransferase (ACAT) activity in rat liver microsome at a concentration of 10 micro g/mL
# Type: microsomes
Would you mind telling me the reported inhibition of each entry?
One number for each entry, in %.

Illustrative cases are given below, each with its answer.
>  <MOLECULE>
COc1ccc(-c2nc(SCC3C[C@@](C)(O)CC(=O)O3)[nH]c2-c2ccc(OC)cc2)cc1 (some centres not stated)

>  <MEASURE UNIT>
%

>  <REPORTED VALUE>
96

$$$$
>  <MOLECULE>
C[C@@]1(O)CC(=O)O[C@@H](CS(=O)(=O)c2nc(-c3ccccc3)c(-c3ccccc3)[nH]2)C1

>  <MEASURE UNIT>
%

>  <REPORTED VALUE>
23

$$$$
>  <MOLECULE>
COc1ccc(-c2nc(SCC3C[C@](C)(O)CC(=O)O3)[nH]c2-c2ccc(OC)cc2)cc1 (some centres not stated)

>  <MEASURE UNIT>
%

>  <REPORTED VALUE>
87

$$$$
>  <MOLECULE>
CC1=CC(=O)OC(CSc2nc(-c3ccc(C)cc3)c(-c3ccc(C)cc3)[nH]2)C1 (configuration not stated)

>  <MEASURE UNIT>
%

>  <REPORTED VALUE>
97

$$$$
>  <MOLECULE>
C[C@@]1(O)CC(=O)OC(CSc2nc(-c3ccccc3)c[nH]2)C1 (some centres not stated)

>  <MEASURE UNIT>
%

>  <REPORTED VALUE>
0

$$$$

Would you mind listing inhibition for each of the following molecules?
1. CCOC(CSc1nc(-c2ccccc2)c(-c2ccccc2)[nH]1)OCC
2. C[C@@]1(O)CC(=O)OC(CSc2nc(-c3ccccc3)c(-c3ccccc3)[nH]2)C1 (some centres not stated)

A:
1. 99
2. 98

* * *

Could you please report measured inhibition for the items listed next?
# TARGET UNDER TEST: Sterol O-acyltransferase 1 (Rattus norvegicus) (UniProt O70536)
# PROTOCOL TEXT: Tested in vitro for acyl coenzyme A:cholesterol acyltransferase (ACAT) activity in rat liver microsome at a concentration of 1 micro g/mL
# Format: microsomes
Give bare numbers, in %.

Field: example entries. Status: answers known.
>  <MOLECULE>
Clc1cccc(-c2[nH]c(SCC3CCCCO3)nc2-c2ccccc2)c1 (configuration not stated)

>  <TARGET UNDER TEST>
Sterol O-acyltransferase 1 (Rattus norvegicus) (UniProt O70536)

>  <MEASURE UNIT>
%

>  <REPORTED VALUE>
90

$$$$
>  <MOLECULE>
c1ccc(-c2nc(SCC3CCCCO3)[nH]c2-c2ccccc2)cc1 (configuration not stated)

>  <TARGET UNDER TEST>
Sterol O-acyltransferase 1 (Rattus norvegicus) (UniProt O70536)

>  <MEASURE UNIT>
%

>  <REPORTED VALUE>
92

$$$$
>  <MOLECULE>
COc1ccccc1-c1nc(S)[nH]c1-c1ccccc1OC

>  <TARGET UNDER TEST>
Sterol O-acyltransferase 1 (Rattus norvegicus) (UniProt O70536)

>  <MEASURE UNIT>
%

>  <REPORTED VALUE>
0

$$$$
>  <MOLECULE>
CO[C@H]1C[C@H](O)C[C@@H](CSc2nc(-c3ccccc3)c(-c3ccccc3)[nH]2)O1

>  <TARGET UNDER TEST>
Sterol O-acyltransferase 1 (Rattus norvegicus) (UniProt O70536)

>  <MEASURE UNIT>
%

>  <REPORTED VALUE>
92

$$$$
>  <MOLECULE>
CC1(C)CC(=O)OC(CSc2nc(-c3ccccc3)c(-c3ccccc3)[nH]2)C1 (configuration not stated)

>  <TARGET UNDER TEST>
Sterol O-acyltransferase 1 (Rattus norvegicus) (UniProt O70536)

>  <MEASURE UNIT>
%

>  <REPORTED VALUE>
94

$$$$

Batch request: inhibition for each of the following molecules.
1. CC(C)(C)c1ccc(-c2nc(SC[C@H]3C[C@@](C)(O)CC(=O)O3)[nH]c2-c2ccc(C(C)(C)C)cc2)cc1.CC(C)(C)c1ccc(-c2nc(SC[C@H]3C[C@](C)(O)CC(=O)O3)[nH]c2-c2ccc(C(C)(C)C)cc2)cc1
2. CO[C@H]1C[C@@](C)(O)C[C@H](CSc2nc(-c3ccccc3)c(-c3ccccc3)[nH]2)O1

A:
1. 32
2. 89

* * *

# TARGET UNDER TEST: Sterol O-acyltransferase 1 (Rattus norvegicus, UniProt O70536)
# Sequence (O70536 whole entry): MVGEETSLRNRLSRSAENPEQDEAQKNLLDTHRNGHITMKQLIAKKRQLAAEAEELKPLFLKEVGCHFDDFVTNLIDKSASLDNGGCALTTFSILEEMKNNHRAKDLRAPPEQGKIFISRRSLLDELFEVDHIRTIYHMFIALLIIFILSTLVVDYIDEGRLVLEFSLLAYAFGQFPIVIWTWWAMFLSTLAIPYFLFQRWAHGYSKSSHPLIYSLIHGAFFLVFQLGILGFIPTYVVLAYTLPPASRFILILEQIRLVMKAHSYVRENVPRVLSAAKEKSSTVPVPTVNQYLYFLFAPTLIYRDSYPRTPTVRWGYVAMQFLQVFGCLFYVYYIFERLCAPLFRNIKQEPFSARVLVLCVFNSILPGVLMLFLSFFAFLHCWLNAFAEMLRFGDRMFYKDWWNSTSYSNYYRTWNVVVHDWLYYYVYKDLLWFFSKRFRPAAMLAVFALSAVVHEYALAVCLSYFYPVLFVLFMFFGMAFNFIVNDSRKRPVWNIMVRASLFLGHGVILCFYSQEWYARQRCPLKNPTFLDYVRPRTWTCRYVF
RESULT TYPE: pIC50
One number for each entry, as −log10 of the molar value.

Example entries and their recorded answers appear below.
>  <COMPOUND>
C[C@]1(O)CC(=O)OC(CSc2nc(-c3ccccc3)c(-c3ccccc3)[nH]2)C1 (some centres undefined)

>  <pIC50>
6.85

$$$$
>  <COMPOUND>
Cc1cccc(-c2nc(SC[C@H]3C[C@@](C)(O)CC(=O)O3)[nH]c2-c2cccc(C)c2)c1.Cc1cccc(-c2nc(SC[C@H]3C[C@](C)(O)CC(=O)O3)[nH]c2-c2cccc(C)c2)c1

>  <pIC50>
7.19

$$$$
>  <COMPOUND>
C[C@@]1(O)CC(=O)OC(CSc2nc(-c3ccccc3)c(-c3ccccc3)[nH]2)C1 (some centres undefined)

>  <pIC50>
6.77

$$$$

For each listed entry, give its pIC50.
1. CC1(C)CC(=O)OC(CSc2nc(-c3ccccc3)c(-c3ccccc3)[nH]2)C1 (centres undefined)
2. COC(CSc1nc(-c2ccccc2)c(-c2ccccc2)[nH]1)OC
3. c1ccc(-c2nc(SCC3OCCO3)[nH]c2-c2ccccc2)cc1
4. Cn1c(SC[C@H]2C[C@@](C)(O)CC(=O)O2)nc(-c2ccccc2)c1-c1ccccc1.Cn1c(SC[C@H]2C[C@](C)(O)CC(=O)O2)nc(-c2ccccc2)c1-c1ccccc1

A:
7.00
6.24
6.28
5.59

I need pIC50 for every entry listed below, if you could help.
1. COc1ccc(-c2nc(SCC3C[C@@](C)(O)CC(=O)O3)[nH]c2-c2ccc(OC)cc2)cc1 (some centres undefined)
2. CC1=CC(=O)OC(CSc2nc(-c3ccccc3Cl)c(-c3ccccc3Cl)[nH]2)C1 (centres undefined)

A:
6.47
5.77
